Assayed target: T1, biotin-labeled CD3 epsilon peptide antigen (human, also: biotin-labeled, position not given here)
T1 construct: Peptide of CD3 epsilon; also called CD3 peptide
T1 peptide: QDGNEEMGGITQTPY
Measurement description: bead ELISA, biotin-CD3 epsilon peptide on streptavidin beads, 100 ng IgG
Where no end group is shown, it is not given here.
Each entry below lists one item and its recorded RLU, CD3 peptide value.
Dear colleague, please return just the value in RLU, with no unit written.

For orientation, consider the following solved cases.
Binder	Measurement unit	RLU, CD3 peptide
DXDU01_3#094 (antibody, human IgG1, V domains shown, also called dBBDu121) VH: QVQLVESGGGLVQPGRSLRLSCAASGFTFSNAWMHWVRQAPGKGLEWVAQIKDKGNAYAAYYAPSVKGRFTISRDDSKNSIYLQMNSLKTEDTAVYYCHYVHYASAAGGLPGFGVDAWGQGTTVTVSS VL: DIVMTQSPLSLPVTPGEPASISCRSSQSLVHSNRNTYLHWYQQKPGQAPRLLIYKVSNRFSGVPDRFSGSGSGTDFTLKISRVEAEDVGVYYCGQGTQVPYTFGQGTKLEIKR	RLU	165000
DADU01_3#002 (antibody, human IgG1, V domains shown, also called dBBDu124) VH: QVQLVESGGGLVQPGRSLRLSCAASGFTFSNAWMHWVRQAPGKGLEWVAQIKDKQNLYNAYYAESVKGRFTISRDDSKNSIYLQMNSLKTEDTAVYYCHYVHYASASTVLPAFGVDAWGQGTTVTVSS VL: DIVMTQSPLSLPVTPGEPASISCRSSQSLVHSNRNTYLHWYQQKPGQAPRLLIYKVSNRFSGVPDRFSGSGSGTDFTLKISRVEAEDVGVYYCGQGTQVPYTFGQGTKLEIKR	RLU	174000
DXDU01_3#072 (antibody, human IgG1, V domains shown, also called dBBDu122) VH: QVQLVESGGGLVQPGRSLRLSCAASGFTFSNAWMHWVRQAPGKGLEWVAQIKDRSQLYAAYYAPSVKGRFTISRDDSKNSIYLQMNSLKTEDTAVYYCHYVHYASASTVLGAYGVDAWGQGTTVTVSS VL: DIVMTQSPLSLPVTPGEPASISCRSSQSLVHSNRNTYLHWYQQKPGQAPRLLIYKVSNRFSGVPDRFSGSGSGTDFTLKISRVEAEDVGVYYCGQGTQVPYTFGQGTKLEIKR	RLU	177000
DADU01_3#001 (antibody, human IgG1, V domains shown, also called dBBDu_126; dBBDu126) VH: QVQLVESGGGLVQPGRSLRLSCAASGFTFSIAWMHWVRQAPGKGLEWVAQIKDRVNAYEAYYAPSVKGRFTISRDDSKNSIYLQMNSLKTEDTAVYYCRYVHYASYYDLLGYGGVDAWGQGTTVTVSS VL: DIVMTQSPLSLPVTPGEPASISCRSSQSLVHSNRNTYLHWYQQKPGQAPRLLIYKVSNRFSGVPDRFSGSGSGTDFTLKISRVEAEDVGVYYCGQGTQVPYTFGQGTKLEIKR	RLU	198000
DADU01_3#018 (antibody, human IgG1, V domains shown, also called dBBDu123) VH: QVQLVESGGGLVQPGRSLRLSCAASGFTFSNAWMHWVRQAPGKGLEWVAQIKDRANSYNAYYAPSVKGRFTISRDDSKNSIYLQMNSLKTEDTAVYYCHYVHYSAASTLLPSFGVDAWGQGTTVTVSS VL: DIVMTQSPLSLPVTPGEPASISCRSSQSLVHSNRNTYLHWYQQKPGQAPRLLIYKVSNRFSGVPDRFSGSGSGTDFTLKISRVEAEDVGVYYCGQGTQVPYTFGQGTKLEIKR	RLU	182000

Report measured RLU, CD3 peptide; entry is DXDU01_3#051 (antibody, human IgG1, V domains shown, also called dBBDu127) VH: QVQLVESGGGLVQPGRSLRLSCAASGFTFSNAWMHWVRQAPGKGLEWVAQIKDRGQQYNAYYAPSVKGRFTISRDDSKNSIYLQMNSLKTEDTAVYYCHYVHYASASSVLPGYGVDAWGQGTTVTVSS VL: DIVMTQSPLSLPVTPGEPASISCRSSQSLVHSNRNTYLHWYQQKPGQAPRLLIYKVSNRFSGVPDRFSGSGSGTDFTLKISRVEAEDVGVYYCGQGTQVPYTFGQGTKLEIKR 169000
